System: Mv-1-Lu mink lung epithelial cells
Experiment: Inhibition of DNA synthesis (3H-thymidine incorporation) and proliferation of Mv-1-Lu cells
Format: cell-based
Conditions: 1 nM; 3H-thymidine incorporation, MV-1-Lu cells
Method: The effect of TGF-β and cytomodulin were evaluated by determining the rate of […]thyidine incorporation into total acid-insoluble DNA and cell number. See generally, Sampath et al., Journal of Biological Chemistry, 267, pp. 20352-20362 (1992). […] Triplicate cultures were harvested every 24 hours for the duration of 7 days, and the cell number was determined by counting cells released by trypsin digestion in a fixed volume hemacytometer. […]
readout.name: Inhibition in comparison to cytomodulin (Inhib by new peptide/Inhib by cytomodulin)
// response body must contain only the number

Guide cases for Inhibition in comparison to cytomodulin (Inhib by new peptide/Inhib by cytomodulin), answers given:
substance: L-I-A-Q-A-K (LIAQAK; TGF-beta mimic) [SEQ ID NO:12]
subject.of.test: Mv-1-Lu mink lung epithelial cells
result: 0.90
--
substance: L-I-A-G-E-G (LIAGEG; TGF-beta mimic) [SEQ ID NO:14]
subject.of.test: Mv-1-Lu mink lung epithelial cells
result: 0.66

Item L-I-A-E-A-A (LIAEAA; TGF-beta mimic) [SEQ ID NO:11] : provide Inhibition in comparison to cytomodulin (Inhib by new peptide/Inhib by cytomodulin)
1.16

Item L-I-A-G-G-E (LIAGGE; TGF-beta mimic) [SEQ ID NO:13] : provide Inhibition in comparison to cytomodulin (Inhib by new peptide/Inhib by cytomodulin)
1.10

Item L-I-A-D-A-K (LIADAK; TGF-beta mimic) [SEQ ID NO:9] : provide Inhibition in comparison to cytomodulin (Inhib by new peptide/Inhib by cytomodulin)
0.45

Item L-I-A-N-A-K (LIANAK; TGF-beta mimic) [SEQ ID NO:10] : provide Inhibition in comparison to cytomodulin (Inhib by new peptide/Inhib by cytomodulin)
1.70

* * *

tested on: Mv-1-Lu mink lung epithelial cells; test: Inhibition of DNA synthesis (3H-thymidine incorporation) and proliferation of Mv-1-Lu cells; assay type: cell-based; details: 100 nM; 3H-thymidine incorporation, MV-1-Lu cells
readout.name: Inhibition in comparison to cytomodulin (Inhib by new peptide/Inhib by cytomodulin)
// response body must contain only the number

Guide cases for Inhibition in comparison to cytomodulin (Inhib by new peptide/Inhib by cytomodulin), answers given:
substance: L-I-A-K-G-K (LIAKGK; TGF-beta mimic) [SEQ ID NO:16]
result: 0.67
--
substance: L-I-A-N-A-K (LIANAK; TGF-beta mimic) [SEQ ID NO:10]
result: 1.43

Item L-I-A-E-A-A (LIAEAA; TGF-beta mimic) [SEQ ID NO:11] : provide Inhibition in comparison to cytomodulin (Inhib by new peptide/Inhib by cytomodulin)
1.17

Item A-N-V-A-E-K (ANVAEK; TGF-beta mimic) [SEQ ID NO:15] : provide Inhibition in comparison to cytomodulin (Inhib by new peptide/Inhib by cytomodulin)
1.00

Item L-I-A-G-G-E (LIAGGE; TGF-beta mimic) [SEQ ID NO:13] : provide Inhibition in comparison to cytomodulin (Inhib by new peptide/Inhib by cytomodulin)
1.45

Item L-I-A-D-A-K (LIADAK; TGF-beta mimic) [SEQ ID NO:9] : provide Inhibition in comparison to cytomodulin (Inhib by new peptide/Inhib by cytomodulin)
1.14

Item L-I-A-Q-A-K (LIAQAK; TGF-beta mimic) [SEQ ID NO:12] : provide Inhibition in comparison to cytomodulin (Inhib by new peptide/Inhib by cytomodulin)
0.80

Item L-I-A-G-E-G (LIAGEG; TGF-beta mimic) [SEQ ID NO:14] : provide Inhibition in comparison to cytomodulin (Inhib by new peptide/Inhib by cytomodulin)
1.41
